- Tested on: T-47D breast
- assay_notes: NCI-60 one-dose screen, 48 h
- measurement_context: 10 µM unless noted
Compounds without any hit were thinned out: in the full panel of roughly 83,000, 20% have a hit. The source made the active and inactive calls. The calls were made as follows: active = growth percent below 10; inactive = the rest.
Respond using exactly one of the listed classes: active, inactive

What is the recorded call for this molecule in the test? `O=C(O)c1ccc(NC(=O)c2ccc(Nc3ccnc(C(F)(F)F)c3)cc2)cc1` inactive

// same read-out, input: O=NC1CC=CCC1c1ccccc1 (centres undefined) inactive

// same read-out, input: `COc1cccc(-c2nnc(N)o2)c1` inactive

// same read-out, input: `COc1ccc2c(c1)/C(=C\c1c[nH]c3ccc(F)cc13)C(=O)N2` inactive

// same read-out, input: COc1cc2c(c(OC)c1OC)-c1ccc(NN(C(=O)c3ccccc3)C(=O)c3ccccc3)c(=O)cc1[C@@H](NC(C)=O)CC2 (tested in a mixture with another compound) inactive

// same read-out, input: `O=C1NCN(c2ccccc2)C12CCN(CCCC(c1ccc(F)cc1)c1ccc(F)cc1)CC2` inactive

// same read-out, input: `Clc1ccc(-n2cnc3c(Cl)ncnc32)cc1Cl` inactive

// same read-out, input: CO[C@H]1CC(O[C@@H]2/C(C)=C/C[C@@H]3C[C@@H](C[C@]4(CC[C@H](C)[C@@H](C5CCCCC5)O4)O3)OC(=O)[C@@H]3C=C(C)/C(=N/O)[C@H]4OC/C(=C\C=C\[C@@H]2C)[C@]43O)O[C@@H](C)C1O (some centres undefined) active

// same read-out, input: `O=C(CCc1nnc2sc(Cc3ccccc3Cl)nn12)c1nc2ccccc2[nH]1` inactive

// same read-out, input: `O=C(CN1CCCCC1)Sc1nnc2sc3ccccc3n12` inactive
